Molecular target: PRMT5 (Homo sapiens (Human))
Sequence (O14744 whole entry): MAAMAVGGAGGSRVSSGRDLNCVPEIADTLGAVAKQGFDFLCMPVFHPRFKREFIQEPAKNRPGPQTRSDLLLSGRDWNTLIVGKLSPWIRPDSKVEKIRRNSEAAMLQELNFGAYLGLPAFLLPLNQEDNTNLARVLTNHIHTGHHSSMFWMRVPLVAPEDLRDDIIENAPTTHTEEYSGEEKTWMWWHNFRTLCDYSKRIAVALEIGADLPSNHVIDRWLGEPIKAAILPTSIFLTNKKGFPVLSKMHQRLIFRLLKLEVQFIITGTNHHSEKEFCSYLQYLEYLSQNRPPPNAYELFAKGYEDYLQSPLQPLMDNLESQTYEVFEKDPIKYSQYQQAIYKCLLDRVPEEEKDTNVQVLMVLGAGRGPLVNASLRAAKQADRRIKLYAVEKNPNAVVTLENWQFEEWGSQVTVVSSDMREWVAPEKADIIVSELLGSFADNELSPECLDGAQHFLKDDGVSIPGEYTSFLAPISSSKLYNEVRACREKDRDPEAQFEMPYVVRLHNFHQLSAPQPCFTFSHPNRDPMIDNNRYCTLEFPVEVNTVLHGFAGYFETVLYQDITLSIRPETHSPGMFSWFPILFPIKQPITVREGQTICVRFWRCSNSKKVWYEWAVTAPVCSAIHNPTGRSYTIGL
Sequence (Q9BQA1 whole entry partner): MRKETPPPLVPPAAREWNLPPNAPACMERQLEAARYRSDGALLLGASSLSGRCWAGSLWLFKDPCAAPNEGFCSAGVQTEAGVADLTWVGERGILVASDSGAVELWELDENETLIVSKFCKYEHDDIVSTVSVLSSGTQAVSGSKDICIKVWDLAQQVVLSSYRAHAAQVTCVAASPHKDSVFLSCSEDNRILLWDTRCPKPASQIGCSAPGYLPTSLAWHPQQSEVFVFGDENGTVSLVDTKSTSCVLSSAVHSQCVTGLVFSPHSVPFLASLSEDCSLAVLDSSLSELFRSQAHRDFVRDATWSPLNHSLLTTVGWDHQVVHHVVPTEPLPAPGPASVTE
Experiment: Inhibitory activity against PRMT5 enzyme by radioisotopic method
Type: biochemical
Conditions: PRMT5 5 nM, [3H]-SAM 0.3 μM, polypeptide substrate GL-27 100 nM, room temperature
pIC50: −log10 of the molar value. Counter-ions that a name gives are not always drawn.
Below, each entry is listed alongside its reported pIC50.
result type: pIC50

- O[C@H]1CN(c2cc(Nc3cccc(C4CC4)c3)ncn2)CC[C@@H]1N1CCc2ccccc2C1 (relative stereo): > 7.00
- O[C@@H]1CN(c2cc(Nc3ccccc3OCC(F)(F)F)ncn2)CC[C@H]1N1CCc2ccccc2C1 (relative stereo): > 7.00
- C#Cc1nc(NC2CCN(C(C)=O)CC2)cc(C(=O)N2CC[C@@H](N3CCc4ccccc4C3)[C@H](O)C2)n1: > 7.00
- CNC(=O)c1cccc(Nc2cc(C(=O)N3CC[C@H](N4CCc5ccccc5C4)[C@@H](O)C3)ncn2)c1 (relative stereo): > 7.00
- CC(=O)N1CCC(Nc2cc(C(=O)N3CC[C@@H](N4CCc5ccccc5C4)[C@H](O)C3)nc(OC(F)(F)F)n2)CC1: > 7.00
- CC(=O)N1CCCC(Nc2cc(C(=O)N3CC[C@H](N4CCc5ccccc5C4)[C@@H](O)C3)ncn2)C1 (relative stereo): > 7.00
- O[C@@H]1CN(c2cc(Nc3cccc(N4CCCC4)c3)ncn2)CC[C@H]1N1CCc2ccccc2C1 (relative stereo): > 7.00
- O[C@H]1CN(c2cc(Nc3ccc(Cl)cc3)ncn2)CC[C@@H]1N1CCc2ccccc2C1 (relative stereo): > 7.00
- O[C@H]1CN(c2cc(Nc3ccccc3-c3ccccc3)ncn2)CC[C@@H]1N1CCc2ccccc2C1 (relative stereo): > 7.00
- CC(=O)N1CCC(Nc2cc(C(=O)N3CC[C@@H](N4CCc5ccccc5C4)[C@H](O)C3)nc(SC(C)C)n2)CC1 [Example 155, hydrochloride]: > 7.00
- C=Cc1nc(NC2CCN(C(C)=O)CC2)cc(C(=O)N2CC[C@@H](N3CCc4ccccc4C3)[C@H](O)C2)n1: > 7.00
- O[C@@H]1CN(c2cc(Nc3cccc(F)c3F)ncn2)CC[C@H]1N1CCc2ccccc2C1 (relative stereo): > 7.00
- CC(C)(C)c1ccc(Nc2cc(N3CC[C@H](N4CCc5ccccc5C4)[C@@H](O)C3)ncn2)cc1 (relative stereo): > 7.00
